measurement.target: T1, cMet-Fc fusion protein (extracellular domain of the cMet receptor expressed as an Fc-fusion protein) (human, UniProt P08581 25-932)
T1 construct: extracellular domain; also called soluble cMet-Fc-fusion protein; soluble cMet receptor; not shown: Fc part
T1 sequence (P08581 25-932): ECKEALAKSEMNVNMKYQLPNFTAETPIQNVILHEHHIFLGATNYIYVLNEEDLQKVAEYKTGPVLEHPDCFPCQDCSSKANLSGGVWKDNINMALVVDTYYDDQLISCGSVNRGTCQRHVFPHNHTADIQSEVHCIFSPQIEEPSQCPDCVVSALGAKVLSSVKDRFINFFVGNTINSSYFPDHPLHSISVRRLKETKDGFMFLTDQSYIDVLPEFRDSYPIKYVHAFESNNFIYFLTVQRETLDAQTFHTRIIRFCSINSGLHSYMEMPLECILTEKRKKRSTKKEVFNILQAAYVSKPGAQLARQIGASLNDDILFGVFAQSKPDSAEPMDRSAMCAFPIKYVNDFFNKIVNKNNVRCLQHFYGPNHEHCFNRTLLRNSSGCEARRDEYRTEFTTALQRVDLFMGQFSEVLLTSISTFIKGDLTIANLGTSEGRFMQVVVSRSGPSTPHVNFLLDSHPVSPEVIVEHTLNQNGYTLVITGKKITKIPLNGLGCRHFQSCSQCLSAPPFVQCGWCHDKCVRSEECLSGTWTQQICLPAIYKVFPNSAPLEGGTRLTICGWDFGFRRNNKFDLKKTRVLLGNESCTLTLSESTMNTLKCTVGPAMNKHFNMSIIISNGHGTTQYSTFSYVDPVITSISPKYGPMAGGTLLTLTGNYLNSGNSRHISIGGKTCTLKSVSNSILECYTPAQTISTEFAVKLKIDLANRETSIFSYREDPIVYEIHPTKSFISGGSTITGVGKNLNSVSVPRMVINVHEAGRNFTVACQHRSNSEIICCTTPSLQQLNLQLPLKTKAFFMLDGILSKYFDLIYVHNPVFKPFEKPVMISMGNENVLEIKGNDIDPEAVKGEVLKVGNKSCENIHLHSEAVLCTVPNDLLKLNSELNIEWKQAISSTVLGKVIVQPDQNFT
assay.overview: phage ELISA on cMet-Fc, competitor HGF 100 ng/mL
quantity: % of binding in the absence of HGF (%)
Give the number; % is assumed, so skip it.

Observe how each entry below is paired with its result.
AGSYWCSGPPTFMCRYEGT [545-B12 peptide-displaying phage (SEQ ID NO: 085)] : 51
AGETFCVGNPSFECWSWGT [545-E05 peptide-displaying phage (SEQ ID NO: 094)] : 70
GSAGWCYTMNYVDQLCTYMAP [445-E11 peptide-displaying phage (SEQ ID NO: 387)] : 69

GET /value?item= AGTIRCNLAMMVCMFEGT [444-B08 peptide-displaying phage (SEQ ID NO: 028)] &field=% of binding in the absence of HGF returns 111

Input AGYFHCSGSPWFQCDYYGT [550-G08 peptide-displaying phage (SEQ ID NO: 081)] . Output % of binding in the absence of HGF: 79

Record GDLLGCGYQEKGGEYKCRFNDP [334-F05 peptide-displaying phage (SEQ ID NO: 395)] . Reported % of binding in the absence of HGF: 58

Value of % of binding in the absence of HGF reported for the binder GSMLMCELWWCRFLAP [569-H10 peptide-displaying phage (SEQ ID NO: 004)] is 98
